The origin of these recorded values is ChEMBL document CHEMBL1201862.

System: DMS-273
Test: NCI tumour cell line growth inhibition, 48 h
Calls of active or inactive are those of the source. Cut-off read from the data, not from the text of the source: active = GI50 up to about 1.1 µM and inactive = higher.
Possible outcomes: active, inactive

molecule	classification
COC(=O)[C@H]1C2CC[C@@H]3C45C[C@@H](c6ccoc6)O[C@@H]4O[C@@H](O2)C31CCC5C (stereo partly specified)	inactive
CC(=O)OC1C(CCl)OC(N=[N+]=[N-])C(OC(C)=O)C1OC(C)=O (stereo unspecified)	inactive
CC(=O)OC1C(=O)C(O)C(C)OC1O[C@@H]1C[C@@]2(C)[C@@H]3CC=C4[C@@H](C[C@H](O)C(=O)C4(C)C)[C@]3(C)C(=O)C[C@]2(C)[C@H]1[C@@](C)(O)C(=O)/C=C/C(C)(C)O (stereo partly specified)	active
O=C1C2C3SC(c4cc5ccccc5cc43)C2C(=O)N1c1ccccc1 (stereo unspecified)	inactive
Cc1nc2c(nc1Cl)nc(Oc1ccc(Cl)cc1)c1ccccc12	inactive
CN1C(=O)CSC1=S	inactive
CCCCCN(CCCCC)C(=O)[C@H](CCC(=O)OCc1ccccc1)NC(=O)c1cc2ccccc2[nH]1	inactive
CC(C)=CCC/C(C)=C/CC/C(C)=C/Cc1c(O)c2ccccc2oc1=O	inactive
Cc1nc2cc3nc4ccccc4c(O)c3cc2s1	inactive
COC(=O)/C(=N\NC(=S)NN)C(C(=O)C(=O)Nc1ccccc1C(N)=O)c1nc2ccccc2nc1O (stereo unspecified)	inactive
CC1OC(OC2C(OC(=O)[C@]34CCC(C)(C)CC3C3=CCC5[C@@]6(C)C[C@H](O)[C@H](OC7OC(COC8OC(CO)C(O)C(O)C8O)C(O)C(O)C7O)[C@@](C)(C(=O)O)C6CC[C@@]5(C)C3(C)CC4)OCC(O)C2O)C(O)C(O)C1OC1OCC(O)C(O)C1O (stereo partly specified)	inactive
O=C(Cc1nc2ccccc2s1)C(=O)Nc1ccc(Cl)cc1Cl	inactive
Clc1ccc(CNc2nc3ccccc3nc2-c2cccs2)c(Cl)c1	inactive
O=C1CCN2C(=Nc3cccc4cccc2c34)N1	inactive
Cc1nc(N)sc1C(=O)/C=C/c1ccc(/C=C/C(=O)c2sc(NC(=O)CCCCCCCCC(=O)Nc3nc(C)c(C(=O)/C=C/c4ccc(/C=C/C(=O)c5sc(N)nc5C)cc4)s3)nc2C)cc1	inactive
CCC1C(=O)OCc2c1cc1n(c2=O)CCC12OCCO2 (stereo unspecified)	inactive
FC(F)(F)c1nc(Br)[nH]c1C(F)(F)F	inactive
O=S1(=O)CSc2ccc3ccccc3c2-c2c1ccc1ccccc21	inactive
C/C(COc1ccccc1)=N\NC(N)=S	inactive
CCCCNC1=C(C(=O)OCC)C(=O)CO1	inactive
CN(C)CC1CCCC/C1=N/O (stereo unspecified)	inactive
O=[N+]([O-])c1ccc(NSc2ccccc2)cc1	inactive
CC(C)(C)CC(C)(C)c1ccc(OCCOCC[N+](C)(C)Cc2ccccc2)cc1 [BENZETHONIUM CHLORIDE]	inactive
Cc1nc2ccccc2c(=O)n1CC(=O)O	inactive
COc1cccc(C2=NC(C(C)C)CO2)c1OC (stereo unspecified)	inactive
COC(=O)N/N=C(\C)CC(=O)Nc1cccc([N+](=O)[O-])c1	inactive
